Biological target: T1, mature human GDF-15 (human, UniProt Q99988 197-308)
T1 construct: Homodimer; also called hGDF-15; recombinant hu-GDF15
T1 sequence: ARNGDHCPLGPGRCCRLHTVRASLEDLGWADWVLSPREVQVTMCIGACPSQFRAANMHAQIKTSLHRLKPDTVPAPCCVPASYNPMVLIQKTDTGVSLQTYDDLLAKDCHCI
Test: HTRF epitope competition; competitor DyLight 650 labelled Antibody A; Europium labelled human GDF-15
Recorded pIC50 by entry
The meaning of pIC50 here: minus log10 of the concentration in molar units.

Consider the worked cases shown below.
| binder | quantitative_result |
| --- | --- |
| AB1170043 (antibody, V domains shown) VH: QVTLKESGPGILQSSQTLSLTCSFSGFSLITSGLGVSWIRQPSGKGLEWLAHIYWDDDKRYNPSLKSRLTISKDTSRNQVFLKITSVDTADTATYYCARGGYDGYYDYWGQGTTLTVSS VL: DVVMTQTPLSLPVSLGDQASISCRSSQSIVHSNGNTNLEWYLQKPGQSPKLLIYKVSNRLSGVPDRFSGSGSGTDFTLKISRVEAEDLGVYYCFQGSHVRTFGGGTKLEIK | 8.71 |
| AB1170247 (antibody, IgG1, V domains shown, Humanized IgG1 TM; not shown: human immunoglobulin kappa light chain constant domain) VH: QVQLVQSGSELKKPGASVKVSCKASGYTFTSYDINWVRQAPGQGLEWIGWIYPRDGISKYNEKFKGRATLTVDTSASTAYMELSSLRSEDTAVYYCAGTYDPAYFDYWGQGTTVTVSS VL: EIVLTQSPATLSVSPGERATLSCRASQSISYYLHWYQQKPGQAPRLLIKYASQSISGVPDRFSGSGSGTDFTLKISRVEAEDFGVYYCQQSNSWPYTFGGGTKVEIK | 7.95 |
| AB1170036 (antibody, V domains shown) VH: DVKLVESGEGLVKPGGSLKLSCAASGFTFSSYAMSWVRQTPEKRLEWVAYISSGGDNIYYADTVKGRFTISRDNARNTLYLQMSSLKSEDTAMYYCTRALVENAYFDYWGQGTTLTVSS VL: DSVLTQSPASLLVSLGQRATISCRASKSVSTSTYSYMHWYQQKPGQPPKLLIKYASYLESGVPARFSGSGSGTDFTLNIHPVEEEDAATYYCQHSREFPWTFGGGTKLEIK | 9.21 |
| AB1170244 (antibody, IgG1, V domains shown, Humanized IgG1 TM; not shown: human immunoglobulin kappa light chain constant domain) VH: EVQLVESGGGLVKPGGSLRLSCAASGFTFSSYAMSWVRQAPGKGLEWVAYISSGGDNIYYADTVKGRFTISRDNSKNTLYLQMNSLKTEDTAVYYCTRALVENAYFDYWGQGTTVTVSS VL: DSVLTQSPDSLAVSLGERATINCRASKSVSTSTYSYMHWYQQKPGQPPKLLIKYASYLESGVPDRFSGSGSGTDFTLKISRVEAEDVGVYYCQHSREFPWTFGGGTKVEIK | 8.93 |

Now let's try a different one.
// pIC50 lookup, binder = AB1170086 (antibody, V domains shown) VH: QVTLKESGPGILQSSQTLSLTCSFSGFSLSTSGMGVSWIRQPSGKGLEWLAHIYWDDDKRYNPSLESRLTISKDTSRNQVFLKITSVDTTDTATYYCARGGYDGYYDYWGQGTTLTVSS VL: DVVMTQTPLSLPVSLGDQASISCRSSQSIVHSNGNTNLEWYLQKPGQSPKLLIYKVSNRLSGVPDRFSGSGSGTDSTLKISRVEAEDLGVYYCFQGSHVRTFGGGTKLEIK , result: 8.96
